Hey, just so you know, these numbers are from patent US20260242735A1.

Target: human CD33 E357A (human, UniProt P20138 18-364)
Sequence (P20138 18-364 E357A limits assumed): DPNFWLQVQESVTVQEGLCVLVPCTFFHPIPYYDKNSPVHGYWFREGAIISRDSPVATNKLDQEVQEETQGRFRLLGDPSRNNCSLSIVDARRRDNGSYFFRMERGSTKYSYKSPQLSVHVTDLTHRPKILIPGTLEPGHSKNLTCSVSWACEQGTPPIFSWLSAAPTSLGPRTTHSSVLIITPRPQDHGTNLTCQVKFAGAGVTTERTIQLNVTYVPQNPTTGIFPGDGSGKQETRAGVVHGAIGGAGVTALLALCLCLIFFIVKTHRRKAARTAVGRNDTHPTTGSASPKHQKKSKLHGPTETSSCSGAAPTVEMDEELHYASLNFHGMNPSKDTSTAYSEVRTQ
Assay: flow cytometry, alanine scan
property.label: Mean % WT Binding

[[record]]
binder = "Refmab #3 (antibody, V domains shown, The alanine scan used IgG or Fab) VH: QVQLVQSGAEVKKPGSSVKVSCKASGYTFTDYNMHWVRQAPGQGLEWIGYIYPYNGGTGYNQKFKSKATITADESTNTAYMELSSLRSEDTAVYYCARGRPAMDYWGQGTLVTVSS VL: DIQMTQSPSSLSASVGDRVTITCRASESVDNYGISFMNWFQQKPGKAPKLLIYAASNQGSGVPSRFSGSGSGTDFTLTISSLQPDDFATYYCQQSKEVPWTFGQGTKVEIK"
property_label = "Mean % WT Binding"
result = "120 % of WT"

